# target.desc: T1, PTP1B catalytic domain (321 residues), GST fusion (Homo sapiens, UniProt P18031 P18031:1-321)
# T1 sequence: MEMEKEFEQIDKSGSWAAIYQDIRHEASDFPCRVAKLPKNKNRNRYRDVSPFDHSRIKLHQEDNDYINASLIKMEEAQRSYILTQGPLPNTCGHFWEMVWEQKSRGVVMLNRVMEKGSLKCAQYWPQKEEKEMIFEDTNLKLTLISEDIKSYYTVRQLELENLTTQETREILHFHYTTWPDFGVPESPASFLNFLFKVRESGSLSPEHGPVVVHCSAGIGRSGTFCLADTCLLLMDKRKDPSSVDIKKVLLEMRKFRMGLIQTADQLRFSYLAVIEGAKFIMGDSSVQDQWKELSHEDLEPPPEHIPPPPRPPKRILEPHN
# assay.overview: filter; 20 mM HEPES pH 7.2, 5 mM MgCl2, 125 mM NaCl, room temperature
# condition.description: tags: GST; hairpin
quantity.measured: Kd (nM)
Give bare numbers, in nM.

## Input Return Kd (reported value) for this binder: GGGAAUUCUGUGAUCAAUUUGGCAAUCCGCCACACGAGUUC (ssRNA) [C13M21]
## Output 28
